- target_entity: T1, StrepII-Avi-TEV-Menin M327I (recombinant mutant human Menin) (human, UniProt O00255 1-610)
- T1 construct: The mutant plasmid was made from the wild-type StrepII-Avi-TEV Menin construct; also called M327I-mutant Menin; M327I Menin
- T1 sequence: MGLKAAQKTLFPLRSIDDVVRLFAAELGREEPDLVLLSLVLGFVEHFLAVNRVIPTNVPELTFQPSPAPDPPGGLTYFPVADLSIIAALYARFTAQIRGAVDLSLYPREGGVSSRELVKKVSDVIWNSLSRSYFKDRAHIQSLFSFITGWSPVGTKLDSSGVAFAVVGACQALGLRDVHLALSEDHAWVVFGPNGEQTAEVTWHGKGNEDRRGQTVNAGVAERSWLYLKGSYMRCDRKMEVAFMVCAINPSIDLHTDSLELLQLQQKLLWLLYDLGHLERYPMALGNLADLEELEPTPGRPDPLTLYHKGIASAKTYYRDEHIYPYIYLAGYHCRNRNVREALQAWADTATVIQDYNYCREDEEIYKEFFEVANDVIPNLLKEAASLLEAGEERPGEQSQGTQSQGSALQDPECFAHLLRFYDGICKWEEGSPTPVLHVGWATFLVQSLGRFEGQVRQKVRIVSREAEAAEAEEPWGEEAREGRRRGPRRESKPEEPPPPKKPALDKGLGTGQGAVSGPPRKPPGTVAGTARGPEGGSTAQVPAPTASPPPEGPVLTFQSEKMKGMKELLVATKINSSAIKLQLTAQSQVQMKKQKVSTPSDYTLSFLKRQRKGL
- measurement_description: fluorescence polarization; 1 nM FITC-MLL1 4-43(C-A) probe titrated with StrepII-Avi-TEV-Menin; one site total fit; mean±S.D., N=3
Ends that are not written are not given here. * marks the point of attachment. FITC = O=C1OC2(c3ccc(O)cc3Oc3cc(O)ccc32)c2ccc(NC(=S)*)cc21
readout_name: Kd (nM)

binder: {FITC}-SARWRFPARPGTTGGGGGGGRRGLGGAPRQRVPALLLPPGY (not fully specified, also called FITC-MLL14-43(C-A) peptide; MLL1 peptide) [N-terminal FITC-conjugated MLL1 4-43(C-A) peptide probe]
readout_name: Kd
numeric_value: 0.91

Hey, just so you know, these numbers are from patent US20260185163A1.
